Quick list: IC50 per entry.
Molecular target: NRAS G12C (Homo sapiens (Human), UniProt P01111+P62937, G12C)
Sequence (P01111 whole entry G12C): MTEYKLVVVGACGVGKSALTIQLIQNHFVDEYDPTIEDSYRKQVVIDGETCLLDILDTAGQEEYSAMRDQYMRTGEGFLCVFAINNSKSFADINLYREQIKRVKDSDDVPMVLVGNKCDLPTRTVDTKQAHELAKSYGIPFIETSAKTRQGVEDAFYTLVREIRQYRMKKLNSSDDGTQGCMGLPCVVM
Sequence (P62937 whole entry): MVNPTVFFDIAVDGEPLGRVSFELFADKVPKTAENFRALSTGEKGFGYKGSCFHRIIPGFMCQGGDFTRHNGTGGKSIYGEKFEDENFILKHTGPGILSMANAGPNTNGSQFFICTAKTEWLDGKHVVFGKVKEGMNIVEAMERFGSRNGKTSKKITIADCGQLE
Assay: Ras-Raf disruption/FRET/MOA assay (BRAF RBD, Cyclophilin A)
Assay type: biochemical
Conditions: read-out: NRAS G12C FRET data IC50

These recorded examples may help you get a feel for the data.
CCn1c(-c2cccnc2[C@H](C)OC)c2c3cc(ccc31)-c1csc(n1)C[C@H](NC(=O)[C@H](C(C)C)N(C)C(=O)N(C)C1COC1)C(=O)N1CCC[C@H](N1)C(=O)OCC(C)(C)C2    0.01 to 0.1 µM
CCn1c(-c2cccnc2[C@H](C)OC)c2c3cc(ccc31)-c1cc(O)cc(c1)C[C@H](NS(=O)(=O)N1CCC1)C(=O)N1CCC[C@H](N1)C(=O)OCC(C)(C)C2    > 10 µM
CCn1c(-c2cccnc2[C@H](C)OC)c2c3cc(ccc31)-c1cc(O)cc(c1)C[C@H](NC(=O)[C@H](C(C)C)N(C)C(=O)[C@@]1(F)CCN(C(=O)OC)C1)C(=O)N1CCC[C@H](N1)C(=O)OCC(C)(C)C2    0.01 to 0.1 µM
CCn1c(-c2cccnc2[C@H](C)OC)c2c3cc(ccc31)-c1csc(n1)C[C@H](NC(=O)[C@H](C(C)C)N(C)C(=O)N1CCCC13CN(C)C3)C(=O)N1CCC[C@H](N1)C(=O)OCC(C)(C)C2    0.01 to 0.1 µM

Here is another compound to look at.
IC50 reported for this compound CCn1c(-c2cccnc2[C@H](C)OC)c2c3cc(ccc31)-c1cc(O)cc(c1)C[C@H](NC(=O)[C@H](C(C)C)N(C)C(=O)N1CC(OC)C1)C(=O)N1CCC[C@H](N1)C(=O)OCC(C)(C)C2 : 0.01 to 0.1 µM

====

Quick list: IC50 per entry.
Biological target: KRAS G12C (Homo sapiens (Human), UniProt P01116+P62937, G12C)
Sequence (P01116-2 other isoform, or with tags, fused parts or gaps G12C): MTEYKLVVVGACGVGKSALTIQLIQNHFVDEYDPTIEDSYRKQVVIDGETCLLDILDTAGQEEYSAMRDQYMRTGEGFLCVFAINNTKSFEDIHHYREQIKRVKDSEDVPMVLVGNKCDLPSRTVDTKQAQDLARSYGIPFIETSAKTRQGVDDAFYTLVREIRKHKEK
Sequence (P62937 whole entry): as the sequence (P62937 whole entry) above
Test: Ras-Raf disruption/FRET/MOA assay (BRAF RBD, Cyclophilin A)
Type: biochemical
Settings: read-out: KRAS G12C FRET IC50

These recorded examples may help you get a feel for the data.
CCn1c(-c2cccnc2[C@H](C)OC)c2c3cc(ccc31)-c1cc(O)cc(c1)C[C@H](NC(=O)[C@H](C(C)C)N(C)C(=O)[C@]1(F)CCN(C(=O)OC)C1)C(=O)N1CCC[C@H](N1)C(=O)OCC(C)(C)C2    10 to 100 nM
CCn1c(-c2cccnc2[C@H](C)OC)c2c3cc(ccc31)-c1csc(n1)C[C@H](NC(=O)N1CCC1)C(=O)N1CCC[C@H](N1)C(=O)OCC(C)(C)C2 [Compound A368]    100 to 1000 nM
CCn1c(-c2cccnc2[C@H](C)OC)c2c3cc(ccc31)-c1cc(O)cc(c1)C[C@H](NC(=O)[C@H](C(C)C)N(C)C(=O)[C@@]1(F)CCN(C(=O)OC)C1)C(=O)N1CCC[C@H](N1)C(=O)OCC(C)(C)C2    10 to 100 nM
CCn1c(-c2cccnc2[C@H](C)OC)c2c3cc(ccc31)-c1csc(n1)C[C@H](NC(=O)C1(F)CC1)C(=O)N1CCC[C@H](N1)C(=O)OCC(C)(C)C2    100 to 1000 nM
CCn1c(-c2cccnc2[C@H](C)OC)c2c3cc(ccc31)-c1cc(O)cc(c1)C[C@H](NC(=O)[C@H](C(C)C)N(C)C(=O)[C@@H]1OCC[C@@H]1c1ccccc1)C(=O)N1CCC[C@H](N1)C(=O)OCC(C)(C)C2    10 to 100 nM
CCn1c(-c2cccnc2[C@H](C)OC)c2c3cc(ccc31)-c1cc(O)cc(c1)C[C@H](NC(=O)[C@H](C(C)C)N(C)C(=O)[C@@H]1NC[C@@H]3C[C@@H]31)C(=O)N1CCC[C@H](N1)C(=O)OCC(C)(C)C2    10 to 100 nM

Bench note, KRAS G12C (Homo sapiens (Human), UniProt P01116+P62937, G12C): entry CCn1c(-c2cccnc2[C@H](C)OC)c2c3cc(ccc31)-c1cc(O)cc(c1)C[C@H](NC(=O)[C@H](C(C)C)N(C)C(=O)C1(F)CC1)C(=O)N1CCC[C@H](N1)C(=O)OCC(C)(C)C2 , its IC50 = 10 to 100 nM

Bench note, KRAS G12C (Homo sapiens (Human), UniProt P01116+P62937, G12C): entry CCn1c(-c2cccnc2[C@H](C)OC)c2c3cc(ccc31)-c1cc(O)cc(c1)C[C@H](NC(=O)[C@H](C(C)C)N(C)C(=O)C1CCC(C(F)(F)F)O1)C(=O)N1CCC[C@H](N1)C(=O)OCC(C)(C)C2 (stereo partly drawn) , its IC50 = 10 to 100 nM

Bench note, KRAS G12C (Homo sapiens (Human), UniProt P01116+P62937, G12C): entry CCO[C@@H]1c2nc(cs2)-c2ccc3c(c2)c(c(-c2cc(C4CCN(C5COC5)CC4)cnc2[C@H](C)OC)n3CC)CC(C)(C)COC(=O)[C@@H]2CCCN(N2)C(=O)[C@H]1NC(=O)[C@H]1[C@H](C)[C@@H]1C , its IC50 = 100 to 1000 nM

====

Biological target: NRAS G12C (Homo sapiens (Human), UniProt P01111+P62937, G12C)
Assay: Ras-Raf disruption/FRET/MOA assay (BRAF RBD, Cyclophilin A)
Format: biochemical
Details: read-out: NRAS G12C FRET data IC50
Readout Name: IC50

These recorded examples may help you get a feel for the data.
CCn1c(-c2cnccc2COC)c2c3cc(ccc31)-c1cc(O)cc(c1)C[C@H](NC(=O)[C@H](C(C)C)N(C)C(=O)[C@@H](C)O)C(=O)N1CCC[C@H](N1)C(=O)OCC(C)(C)C2    1 to 10 µM
CCn1c(-c2cccnc2[C@H](C)OC)c2c3cc(ccc31)-c1csc(n1)C[C@H](NC(=O)[C@H](C(C)C)N(C)C(=O)[C@H]1CCN(S(C)(=O)=O)C1)C(=O)N1CCC[C@H](N1)C(=O)OCC(C)(C)C2    1 to 10 µM
CCn1c(-c2cccnc2COC)c2c3cc(ccc31)-c1cc(O)cc(c1)C[C@H](NC(=O)[C@H](C(C)C)N(C)C(=O)OC1COC1)C(=O)N1CCC[C@H](N1)C(=O)OCC(C)(C)C2    0.1 to 1 µM
CCn1c(-c2cccnc2[C@H](C)OC)c2c3cc(ccc31)-c1cc(O)cc(c1)C[C@H](NC(=O)C(=C(C)C)N(C)C(C)=O)C(=O)N1CCC[C@H](N1)C(=O)OCC(C)(C)C2    1 to 10 µM

Here is another compound to look at.
IC50 reported for this compound CCn1c(-c2cnccc2COC)c2c3cc(ccc31)-c1cc(O)cc(c1)C[C@H](NC(=O)[C@H](C(C)C)N(C)C(=O)[C@H]1CCN(C[C@@H](C)O)C1)C(=O)N1CCC[C@H](N1)C(=O)OCC(C)(C)C2 : 0.1 to 1 µM

====

Target: KRAS G12D (Homo sapiens (Human), UniProt P01116+P62937, G12D)
Sequence (P01116 other isoform, or with tags, fused parts or gaps G12D): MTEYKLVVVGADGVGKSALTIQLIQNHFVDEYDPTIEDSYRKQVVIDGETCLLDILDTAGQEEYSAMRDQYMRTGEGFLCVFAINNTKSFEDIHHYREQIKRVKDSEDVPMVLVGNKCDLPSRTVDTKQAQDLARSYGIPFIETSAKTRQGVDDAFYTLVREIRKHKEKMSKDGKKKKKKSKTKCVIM
Sequence (P62937 whole entry): as the sequence (P62937 whole entry) above
Assay: Ras-Raf disruption/FRET/MOA assay (BRAF RBD, Cyclophilin A)
Format: biochemical
Conditions: read-out: KRAS G12D FRET IC50
pIC50: −log10 of the molar value.
Quick list: pIC50 per entry.

These recorded examples may help you get a feel for the data.
CCn1c(-c2cccnc2[C@H](C)OC)c2c3cc(ccc31)-c1csc(n1)C[C@H](NC(=O)[C@H](C(C)C)N(C)C(=O)N1CC(N3CCC3)C1)C(=O)N1CCC[C@H](N1)C(=O)OCC(C)(C)C2 [Compound A295]    5.00 to 6.00
CCn1c(-c2cccnc2[C@H](C)OC)c2c3cc(ccc31)-c1cccc(c1)C[C@H](NC(=O)[C@H](C(C)C)N(C)C(=O)[C@H]1CCN(C)C1)C(=O)N1CCC[C@H](N1)C(=O)OCC(C)(C)C2 [Compound A107]    5.00 to 6.00
CCn1c(-c2cccnc2[C@H](C)OC)c2c3cc(ccc31)-c1csc(n1)C[C@H](NC(=O)[C@H](C(C)C)N(C)C(=O)N1CC[C@H]1CN(C)C)C(=O)N1CCC[C@H](N1)C(=O)OCC(C)(C)C2 [Compound A508]    5.00 to 6.00
CCn1c(-c2cccnc2[C@H](C)OC)c2c3cc(ccc31)-c1cc(O)cc(c1)C[C@H](NC(=O)[C@H](C(C)C)N(C)C(=O)[C@H]1C[C@@H]1F)C(=O)N1CCC[C@H](N1)C(=O)OCC(C)(C)C2 [Compound A161]    6.00 to 7.00

Here is another compound to look at.
pIC50 reported for this compound CCn1c(-c2cccnc2[C@H](C)OC)c2c3cc(ccc31)-c1cc(O)cc(c1)C[C@H](NC(=O)[C@H](C(C)C)N(C)C(=O)[C@H]1CC[C@@H]1N)C(=O)N1CCC[C@H](N1)C(=O)OCC(C)(C)C2 [Compound A392] : 7.00 to 8.00
